Assay Explanation: Cytotoxicity against human HK-2 cells assessed as cell growth inhibition incubated for 48 hrs by SRB assay
Assay type: toxicity, cell-based
Each entry below lists one item and its recorded CC50 at 48 h value.
Observation Type: CC50 at 48 h

>>> print(df.to_string())
                                    compound  obs_value
 0   Cc1c(O)c(=O)ccn1-c1ccc(OCCCN2CCOCC2)cc1      78 µM
 1       Cc1c(O)c(=O)ccn1-c1ccc(NCCN(C)C)cc1   > 100 µM
 2                 Cc1c(O)c(=O)ccn1CC1CCCCC1   > 100 µM
 3    Cc1c(O)c(=O)ccn1-c1ccc(OCCN2CCCCC2)cc1   > 100 µM
 4  Cc1c(O)c(=O)ccn1-c1ccc(OC2CCN(C)C2)cc1 (stereo not given)   > 100 µM
 5    Cc1c(O)c(=O)ccn1-c1ccc(OCCOCCN(C)C)cc1      68 µM
 6  Cc1c(O)c(=O)ccn1-c1ccc(N(C)CCN(C)C)cc1.Cl   > 100 µM
 7                   Cc1c(O)c(=O)ccn1CCN(C)C   > 100 µM
 8               CCc1c(O)c(=O)ccn1CCc1ccccc1   > 100 µM
 9  Cc1c(O)c(=O)ccn1-c1ccc(OCC2CCN(C)CC2)cc1   > 100 µM
10       Cc1c(O)c(=O)ccn1-c1ccc(N2CCOCC2)cc1   > 100 µM
11  Cc1c(O)c(=O)ccn1-c1ccc(NCCN2CCN(C)CC2)cc1   > 100 µM
12           Cc1c(O)c(=O)ccn1C [DEFERIPRONE]   > 100 µM
13  COc1cc(N2CCN(C)CC2)ccc1-n1ccc(=O)c(O)c1C   > 100 µM
14    Cc1c(O)c(=O)ccn1-c1ccc(N2CCN(C)CC2)cc1      81 µM
15                Cc1c(O)c(=O)ccn1CCc1ccccc1   > 100 µM
16        Cc1c(O)c(=O)ccn1-c1ccc(N(C)CCO)cc1   > 100 µM
17       Cc1c(O)c(=O)ccn1-c1ccc(OCCN(C)C)cc1   > 100 µM
18          Cc1c(O)c(=O)ccn1-c1ccc(N(C)C)cc1   > 100 µM
19  Cc1c(O)c(=O)ccn1-c1ccc(N2CCN(C)CC2)c(F)c1   > 100 µM
